Quick reference for deltaH among some compounds
system under test: Biotin--[acetyl-CoA-carboxylase] ligase (Mycobacterium tuberculosis (strain ATCC 25618 / H37Rv)) (UniProt I6YFP0)
Sequence (I6YFP0 whole entry): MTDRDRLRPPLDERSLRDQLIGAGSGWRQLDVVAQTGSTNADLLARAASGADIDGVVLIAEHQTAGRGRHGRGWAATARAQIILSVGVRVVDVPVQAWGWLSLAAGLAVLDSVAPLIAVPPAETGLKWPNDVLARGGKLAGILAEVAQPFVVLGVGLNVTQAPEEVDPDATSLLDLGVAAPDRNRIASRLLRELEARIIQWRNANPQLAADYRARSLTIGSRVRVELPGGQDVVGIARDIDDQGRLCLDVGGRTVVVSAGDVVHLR
assay name: Binding affinity to Mycobacterium tuberculosis BPL assessed as change in enthalpy by isothermal titration calorimetry
observed property: deltaH

compound: CN(C(=O)CCCC[C@@H]1SC[C@@H]2NC(=O)N[C@@H]21)S(=O)(=O)NC[C@H]1O[C@@H](n2cnc3c(N)ncnc32)[C@H](O)[C@@H]1O
observed property: deltaH
val: -9.6 kcal/mol

compound: Nc1cccc2c1ncn2CCCCNS(=O)(=O)NC(=O)CCCC[C@@H]1SC[C@@H]2NC(=O)N[C@@H]21
observed property: deltaH
val: -12.3 kcal/mol

compound: CC(CCC[C@@H]1SC[C@@H]2NC(=O)N[C@@H]21)C(=O)[N-]S(=O)(=O)NC[C@H]1O[C@@H](n2cnc3c(N)ncnc32)[C@H](O)[C@@H]1O.[Na+] (stereo partly drawn)
observed property: deltaH
val: -11.9 kcal/mol

----------
assay name: Renal clearance in female CD-1 mouse at 5 mg/kg, iv administered […] measured after 24 hrs by LC-MS/MS analysis
Assay type: ADME, organism-based
condition set: in vivo
observed property: CL renal at 24 h

smiles text: Nc1ncnc2c1ncn2[C@@H]1O[C@H](CNS(=O)(=O)[N-]C(=O)CCCC[C@@H]2SC[C@@H]3NC(=O)N[C@@H]32)[C@@H](O)[C@H]1O.[Na+]
val: 22.5 mL/min/kg

----------
assay name: AUC (0 to 24 hrs) in female CD-1 mouse at 10 mg/kg, iv administered […] measured after 24 hrs by LC-MS/MS analysis
Type: ADME, organism-based
condition set: in vivo
observed property: AUC(0-t) at 24 h (ng·h/mL)

smiles text: CC(=O)NC[C@H]1CN(c2ccc(N3CCOCC3)c(F)c2)C(=O)O1
observed property: AUC(0-t) at 24 h
unit: ng·h/mL
val: 11000

----------
system under test: Biotin--[acetyl-CoA-carboxylase] ligase (Mycobacterium tuberculosis (strain ATCC 25618 / H37Rv)) (UniProt I6YFP0)
assay name: Binding affinity to Mycobacterium tuberculosis BPL assessed as change in gibbs free energy by isothermal titration calorimetry
observed property: deltaG (kcal/mol)

molecule: CC(CCC[C@@H]1SC[C@@H]2NC(=O)N[C@@H]21)C(=O)[N-]S(=O)(=O)NC[C@H]1O[C@@H](n2cnc3c(N)ncnc32)[C@H](O)[C@@H]1O.[Na+] (some centres not stated)
unit: kcal/mol
val: -10.4
//
molecule: C[C@@H]1NC(=O)N[C@@H]1CCCCCC(=O)NS(=O)(=O)NC[C@H]1O[C@@H](n2cnc3c(N)cccc32)[C@H](O)[C@@H]1O
unit: kcal/mol
val: -10.6
//
molecule: Nc1ncnc2c1ncn2[C@@H]1O[C@H](Cn2cc(CCCCC[C@@H]3SC[C@@H]4NC(=O)N[C@@H]43)nn2)[C@@H](O)[C@H]1O
unit: kcal/mol
val: -9.9
//
molecule: Nc1cccc2c1ncn2[C@@H]1O[C@H](CNS(=O)(=O)NC(=O)CCCC[C@@H]2SC[C@@H]3NC(=O)N[C@@H]32)[C@@H](F)[C@H]1O
unit: kcal/mol
val: -9.1
//
molecule: Nc1ncnc2c1ncn2[C@@H]1O[C@H](CNS(=O)(=O)NC(=O)NCCCCC[C@@H]2SC[C@@H]3NC(=O)N[C@@H]32)[C@@H](O)[C@H]1O
unit: kcal/mol
val: -9.4
//
molecule: Nc1ncnc2c1ncn2[C@@H]1O[C@H](CNS(=O)(=O)[N-]C(=O)CCCC[C@@H]2SC[C@@H]3NC(=O)N[C@@H]32)[C@@H](O)[C@H]1O.[Na+]
unit: kcal/mol
val: -12.4
//
molecule: CN(C(=O)CCCC[C@@H]1SC[C@@H]2NC(=O)N[C@@H]21)S(=O)(=O)NC[C@H]1O[C@@H](n2cnc3c(N)ncnc32)[C@H](O)[C@@H]1O
unit: kcal/mol
val: -9.7
//
molecule: Nc1ncnc2c1ncn2[C@@H]1O[C@H](CNS(=O)(=O)NC(=S)NCCCC[C@@H]2SC[C@@H]3NC(=O)N[C@@H]32)[C@@H](O)[C@H]1O
unit: kcal/mol
val: -9.9
//
molecule: Nc1ncnc2c1ncn2[C@@H]1O[C@H](CNS(=O)(=O)NCCCCC[C@@H]2SC[C@@H]3NC(=O)N[C@@H]32)[C@@H](O)[C@H]1O
unit: kcal/mol
val: -10.4
//
molecule: Nc1ncnc2c1ncn2[C@@H]1O[C@H](CNS(=O)(=O)NC(=O)NCCCC[C@@H]2SC[C@@H]3NC(=O)N[C@@H]32)[C@@H](O)[C@H]1O
unit: kcal/mol
val: -9.9
//
molecule: Nc1cccc2c1ncn2[C@@H]1O[C@H](CNS(=O)(=O)NC(=O)CCCC[C@@H]2SC[C@@H]3NC(=O)N[C@@H]32)[C@@H](O)[C@H]1O
unit: kcal/mol
val: -9.4
//
molecule: Nc1cccc2c1ncn2CCCCNS(=O)(=O)NC(=O)CCCC[C@@H]1SC[C@@H]2NC(=O)N[C@@H]21
unit: kcal/mol
val: -9.1

----------
System: Mycobacterium tuberculosis
assay name: Antimicrobial activity against wild type Mycobacterium tuberculosis H37Rv assessed as inhibition of microbial growth incubated for 14 days in biotin-deficient GAST medium by broth microdilution assay
Format: functional
condition set: 336 h, time 14 day
Quick reference for MIC50 among some compounds

smiles text: Nc1ncnc2c1ncn2[C@@H]1O[C@H](CNS(=O)(=O)NCCCCC[C@@H]2SC[C@@H]3NC(=O)N[C@@H]32)[C@@H](O)[C@H]1O
MIC50: > 100 µM

smiles text: Nc1ncnc2c1ncn2[C@@H]1O[C@H](Cn2cc(C(=O)CCCC[C@@H]3SC[C@@H]4NC(=O)N[C@@H]43)nn2)[C@@H](O)[C@H]1O
MIC50: > 100 µM

smiles text: Nc1cccc2c1ncn2[C@@H]1O[C@H](CNS(=O)(=O)NC(=O)CCCC[C@@H]2SC[C@@H]3NC(=O)N[C@@H]32)[C@@H](F)[C@H]1O
MIC50: > 100 µM

smiles text: Nc1cccc2c1ncn2CCCCNS(=O)(=O)NC(=O)CCCC[C@@H]1SC[C@@H]2NC(=O)N[C@@H]21
MIC50: 21 µM

smiles text: CN(C(=O)CCCC[C@@H]1SC[C@@H]2NC(=O)N[C@@H]21)S(=O)(=O)NC[C@H]1O[C@@H](n2cnc3c(N)ncnc32)[C@H](O)[C@@H]1O
MIC50: > 100 µM

smiles text: Nc1ncnc2c1ncn2[C@@H]1O[C@H](CNS(=O)(=O)NC(=S)NCCCC[C@@H]2SC[C@@H]3NC(=O)N[C@@H]32)[C@@H](O)[C@H]1O
MIC50: > 100 µM
